Biological target: human TGR5 (hTGR5) receptors (Homo sapiens, UniProt Q8TDU6)
Sequence (Q8TDU6 1-330): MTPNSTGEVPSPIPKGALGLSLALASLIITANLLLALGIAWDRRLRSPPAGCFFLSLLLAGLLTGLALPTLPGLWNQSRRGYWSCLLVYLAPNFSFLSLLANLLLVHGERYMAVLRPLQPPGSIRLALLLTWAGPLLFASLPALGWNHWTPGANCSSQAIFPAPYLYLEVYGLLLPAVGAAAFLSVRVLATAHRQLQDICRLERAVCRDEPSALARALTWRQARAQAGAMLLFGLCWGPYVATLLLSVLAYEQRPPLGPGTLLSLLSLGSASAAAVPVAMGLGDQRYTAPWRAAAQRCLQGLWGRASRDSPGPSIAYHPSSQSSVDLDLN
Assay: Agonistic activity towards TGR5 receptors, increase of intracellular cAMP in HEK-293 cells
Conditions: HEK-293 cells expressing hTGR5, read-out: Activity (agonistic activity, EC50 class)
pEC50: −log10 of the molar value.
Here the recorded pEC50 is given for each entry.

Consider the reported pEC50 for these compounds:
1) O=C(NC1CCCCC1)C1c2cc(C(F)(F)F)ccc2OCCN1Cc1cccc(-c2ccccc2)c1 (centres unmarked)    > 6.00
2) Cc1cccc(-c2ccccc2CN2C(=O)COc3ccccc3C2C(=O)NC(C)(C)C)c1 (centres unmarked)    < 5.00

Ask: Check the records and state pEC50 for CC(C)(C)NC(=O)C1c2ccccc2OCC(=O)N1Cc1ccccc1-c1ccncc1 (centres unmarked)
Reply: < 5.00

Ask: Please report pEC50 for the following compound: CC(C)(C)NC(=O)C1c2cc(F)ccc2OCCN1Cc1ccccc1-c1ccncc1 (centres unmarked)
Reply: 5.00 to 6.00

Ask: Provide measured pEC50 value, entry: O=C(NC1CCCC1)C1c2cc(C(F)(F)F)ccc2OCC(=O)N1Cc1cccc(-c2ccccc2)c1 (centres unmarked)
Reply: < 5.00

Ask: Return pEC50 for the following compound: O=C(NC1CCCC1)C1c2cc(C(F)(F)F)ccc2OCCN1Cc1cccc(-c2ccccc2)c1 (centres unmarked)
Reply: < 5.00

Ask: Tell me measured pEC50 for CC(C)(C)NC(=O)C1c2cc(F)ccc2OCCN1Cc1ccccc1-c1ccc(F)cc1 (centres unmarked) please.
Reply: > 6.00

Ask: Supply measured pEC50 of Cc1ccc(-c2ccccc2CN2C(=O)COc3ccccc3C2C(=O)NC(C)(C)C)cc1 (centres unmarked) in your reply.
Reply: 5.00 to 6.00
